Hey, just so you know, these numbers are from PubChem BioAssay (NCI).

- Test system: 786-0 renal
- ASSAY METHOD TEXT: NCI-60 one-dose screen, 48 h (100 = growth as untreated, 0 = no growth, -100 = all killed)
- EXPERIMENTAL CONTEXT: 10 µM
The panel holds about 83,000 compounds, 20% with a hit somewhere; the sample as a whole holds those more often.
Each entry falls into one class according to its growth; the ranges are lower range: < 10%; middle range: ≥ 10% and < 90%; upper range: ≥ 90%

[[record]]
compound = "Cc1cc2nc3c4ccccc4n(CCO)c3nc2cc1C"
assigned_class = "middle range"

[[record]]
compound = "CC1(C)[C@@H](NCO)CC[C@]2(C)[C@H]3C(=O)C=C4[C@@H]5C[C@](C)(CO)CC[C@]5(C)CC[C@@]4(C)[C@]3(C)CC[C@@H]12"
assigned_class = "middle range"

[[record]]
compound = "O=C(c1ccc(Cl)cc1)C1[C@H](c2ccc(Br)cc2)[C@@H](c2ccccc2)NC12C(=O)Nc1ccc(Cl)cc12 (some centres not stated)"
assigned_class = "lower range"

[[record]]
compound = "COc1ccccc1[C@H]1C(C(=O)c2ccc(Cl)cc2)C2(N[C@@H]1c1ccccc1)C(=O)Nc1ccccc12 (some centres not stated)"
assigned_class = "lower range"

[[record]]
compound = "COC(=O)C[C@](O)(CCCC(C)(C)O)C(=O)O[C@H]1C(OC)=C[C@@]23CCC(=O)N2CCc2cc4c(cc2[C@@H]13)OCO4"
assigned_class = "upper range"

[[record]]
compound = "O=C(Nc1ccc(I)cc1F)c1cc(-c2ccc(F)cc2F)ccc1O"
assigned_class = "middle range"

[[record]]
compound = "CC1(C)CC[C@]2(C(=O)O)CC[C@]3(C)C(=CC[C@@H]4[C@@]5(C)C/C(=C/c6ccncc6)[C@H](O)C(C)(C)[C@@H]5CC[C@]43C)[C@@H]2C1"
assigned_class = "middle range"

[[record]]
compound = "Clc1ccc(/C=N/Nc2ncnc3sc4c(c23)CCN(Cc2ccccc2)C4)cc1"
assigned_class = "lower range"

[[record]]
compound = "CC(C)C1=C[C@@]23CC[C@@H]4[C@](C)(CCC[C@]4(C)C(=O)NCc4ccccc4)[C@H]2C[C@@H]1[C@H]1C(=O)CCC(=O)[C@H]13"
assigned_class = "middle range"

[[record]]
compound = "CC(=O)c1ccc(NC(=O)NCn2c(=O)[nH]c3ccccc3c2=O)cc1"
assigned_class = "upper range"

[[record]]
compound = "CC[C@@]1(O)C(=O)OCc2c1cc1n(c2=O)Cc2c-1nc1cc(F)c(C)c3c1c2[C@@H](N)CC3"
assigned_class = "lower range"

[[record]]
compound = "CN1CCN(c2ccc(Nc3nc(N4CCN(S(=O)(=O)c5ccc(F)cc5)CC4)c4sccc4n3)cc2)CC1"
assigned_class = "lower range"

[[record]]
compound = "CCCCOc1ccc(Nc2nc3ccccc3nc2Nc2ccc(OCCCC)cc2)cc1"
assigned_class = "middle range"

[[record]]
compound = "Cc1ccc(/C=C/C(=O)c2ccc(NC(=O)CSc3nnc(-c4c[nH]c5ccccc45)n3-c3ccccc3)cc2)cc1"
assigned_class = "upper range"

[[record]]
compound = "O=C1NC(=NC23CC4CC(CC(C4)C2)C3)N/C1=C\\c1ccc2ncoc2c1"
assigned_class = "middle range"

[[record]]
compound = "Cc1cc(=O)oc2cc(OCCCCOc3ccc(/C=C/C(=O)Nc4ccc(F)c(Cl)c4)cc3)ccc12"
assigned_class = "upper range"

